Data provenance is paper PMC8151276.

molecular target: HTR2C (Homo sapiens); construct: purchased Promega (in-house HiBiT-GPCR construct library, NanoBRET); assay: NanoBRET screen HiBiT-HTR2C in HEK293; assay type: binding; settings: HTR2C; tracer 0.1μM
Sequence (P28335 33-458): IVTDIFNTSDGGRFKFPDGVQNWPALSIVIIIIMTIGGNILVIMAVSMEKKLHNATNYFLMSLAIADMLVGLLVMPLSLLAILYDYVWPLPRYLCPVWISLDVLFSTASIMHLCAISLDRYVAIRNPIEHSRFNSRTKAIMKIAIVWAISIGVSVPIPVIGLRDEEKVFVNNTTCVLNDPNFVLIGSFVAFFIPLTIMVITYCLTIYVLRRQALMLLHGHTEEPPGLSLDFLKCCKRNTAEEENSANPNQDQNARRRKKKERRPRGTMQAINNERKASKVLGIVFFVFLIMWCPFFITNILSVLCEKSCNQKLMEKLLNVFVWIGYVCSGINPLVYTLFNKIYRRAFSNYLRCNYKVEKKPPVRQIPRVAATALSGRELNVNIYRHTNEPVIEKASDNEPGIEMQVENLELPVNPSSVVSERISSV
Form field: NanoBRET Fold Response (one value per entry).
Please give the numeric answer without any surrounding text.

Example compounds with recorded NanoBRET Fold Response:
CCCn1c(=O)c2[nH]c(-c3ccc(OCC(=O)NCCNC(=O)CCOCCNC(=O)c4ccc(CNC(=O)CCc5ccc6n5[B-](F)(F)[N+]5=C(c7ccc[nH]7)C=CC5=C6)cc4)cc3)nc2n(CCC)c1=O = 1.45
COc1ccccc1N1CCN(CCCCN2C(=O)c3ccc(CNC(=O)CCOCCNC(=O)c4ccc(CNC(=O)CCc5ccc6n5[B-](F)(F)[N+]5=C(c7ccc[nH]7)C=CC5=C6)cc4)cc3C2=O)CC1 = 1.04

Query: For the compound O=C(CCc1ccc2n1[B-](F)(F)[N+]1=C(c3ccc[nH]3)C=CC1=C2)NCCOCCOCCNC(=O)OCCOCCN1CCN(C2=Nc3ccccc3Sc3ccccc32)CC1 , give its reported NanoBRET Fold Response.
Result: 0.99

###

Target: LTB4R (Homo sapiens, UniProt Q15722)
Construct: purchased Promega (in-house HiBiT-GPCR construct library, NanoBRET)
Sequence (Q15722 whole entry): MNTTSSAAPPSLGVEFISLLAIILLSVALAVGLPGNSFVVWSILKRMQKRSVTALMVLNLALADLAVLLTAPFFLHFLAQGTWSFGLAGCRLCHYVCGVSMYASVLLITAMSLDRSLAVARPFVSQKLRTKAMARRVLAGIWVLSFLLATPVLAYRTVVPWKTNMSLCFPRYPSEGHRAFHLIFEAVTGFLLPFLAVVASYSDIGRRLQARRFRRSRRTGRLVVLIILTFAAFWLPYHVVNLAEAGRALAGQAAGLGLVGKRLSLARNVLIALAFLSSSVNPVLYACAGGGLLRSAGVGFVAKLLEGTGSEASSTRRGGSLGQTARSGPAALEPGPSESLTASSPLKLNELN
Test: NanoBRET screen HiBiT-LTB4R in HEK293
Format: binding
Conditions: LTB4R; tracer 1μM
Protocol: Each tracer candidate was screened across the entire library of HiBiT-GPCR constructs using NanoBRET as the detection modality. As depicted in Figure 4A, the specificity of interactions was evaluated through decrease in BRET due to competitive displacement of a bound tracer by excess parental compound. Each tracer was analyzed for binding to each HiBiT-GPCR fusion in the absence and in the presence of competing parental compound. […]
Recorded NanoBRET Fold Response values for a group of compounds are listed next.
Just the number, please, no unit after it.

Below are worked cases with known answers.
CC(C)N(CC[C@H](c1ccccc1)c1cc(CCNC(=O)c2ccc(CNC(=O)CCc3ccc4n3[B-](F)(F)[N+]3=C(c5ccc[nH]5)C=CC3=C4)cc2)ccc1O)C(C)C = 1.03
CC(C)N(CC[C@H](c1ccccc1)c1cc(CCNC(=O)CCOCCOCCOCCOCCNC(=O)CCc2ccc3n2[B-](F)(F)[N+]2=C(c4ccc[nH]4)C=CC2=C3)ccc1O)C(C)C = 0.96
Cc1cc2c(s1)Nc1ccccc1N=C2N1CCN(CCCNC(=O)CCOCCOCCOCCOCCNC(=O)CCc2ccc3n2[B-](F)(F)[N+]2=C(c4ccc[nH]4)C=CC2=C3)CC1 = 1.03
O=C(CCc1ccc2n1[B-](F)(F)[N+]1=C(c3ccc[nH]3)C=CC1=C2)NCCOCCOCCNC(=O)OCCOCCN1CCN(C2=Nc3ccccc3Sc3ccccc32)CC1 = 1.40
COc1ccccc1N1CCN(CCCCN2C(=O)c3ccc(CNC(=O)CCOCCOCCOCCOCCNC(=O)CCc4ccc5n4[B-](F)(F)[N+]4=C(c6ccc[nH]6)C=CC4=C5)cc3C2=O)CC1 = 0.96

Consider the record given below.
Query: Return reported NanoBRET Fold Response. Input compound: O=C(CCOCCOCCOCCOCCNC(=O)CCc1ccc2n1[B-](F)(F)[N+]1=C(c3ccc[nH]3)C=CC1=C2)NCCCN1CCN(C2=Nc3ccccc3Oc3ccc(Cl)cc32)CC1
Result: 0.96

###

target: ADRA2A (Homo sapiens, UniProt P08913); construct: purchased Promega (in-house HiBiT-GPCR construct library, NanoBRET); experiment: NanoBRET screen HiBiT-ADRA2A in HEK293; type: binding; conditions: ADRA2A; tracer 1μM
Sequence (P08913 whole entry): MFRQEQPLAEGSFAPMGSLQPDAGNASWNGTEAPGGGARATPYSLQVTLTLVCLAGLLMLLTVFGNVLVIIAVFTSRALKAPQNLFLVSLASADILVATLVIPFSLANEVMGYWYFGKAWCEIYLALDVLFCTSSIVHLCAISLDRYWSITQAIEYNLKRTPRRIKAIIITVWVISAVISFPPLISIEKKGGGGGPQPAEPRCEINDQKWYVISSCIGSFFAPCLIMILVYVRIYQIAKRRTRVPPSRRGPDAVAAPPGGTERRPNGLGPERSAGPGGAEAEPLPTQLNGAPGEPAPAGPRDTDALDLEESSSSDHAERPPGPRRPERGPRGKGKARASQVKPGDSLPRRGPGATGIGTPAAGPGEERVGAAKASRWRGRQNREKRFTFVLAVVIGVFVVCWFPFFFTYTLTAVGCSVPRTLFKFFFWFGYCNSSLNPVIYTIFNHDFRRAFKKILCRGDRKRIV
reported property: NanoBRET Fold Response
Give the figure by itself; no unit, no explanation.

O=C(CCOCCOCCOCCOCCNC(=O)CCc1ccc2n1[B-](F)(F)[N+]1=C(c3ccc[nH]3)C=CC1=C2)NCCCN1CCN(C2=Nc3ccccc3Oc3ccc(Cl)cc32)CC1 = 1.02

Query: Report NanoBRET Fold Response, nothing else, for this molecule: Cc1cc2c(s1)Nc1ccccc1N=C2N1CCN(CCCNC(=O)CCOCCOCCOCCOCCNC(=O)CCc2ccc3n2[B-](F)(F)[N+]2=C(c4ccc[nH]4)C=CC2=C3)CC1
Result: 1.04

Query: Complete the entry with NanoBRET Fold Response for CC(C)N(CC[C@H](c1ccccc1)c1cc(CCNC(=O)c2ccc(CNC(=O)CCc3ccc4n3[B-](F)(F)[N+]3=C(c5ccc[nH]5)C=CC3=C4)cc2)ccc1O)C(C)C
Result: 1.07

Query: Quick one: give measured NanoBRET Fold Response for N#CN=C(NCCCOc1cccc(CN2CCCCC2)c1)NCCNC(=O)CCOCCOCCOCCOCCNC(=O)CCc1ccc2n1[B-](F)(F)[N+]1=C(c3ccc[nH]3)C=CC1=C2
Result: 1.26

Query: Kindly indicate its recorded NanoBRET Fold Response. Item: COc1ccccc1N1CCN(CCCCN2C(=O)c3ccc(CNC(=O)CCOCCNC(=O)c4ccc(CNC(=O)CCc5ccc6n5[B-](F)(F)[N+]5=C(c7ccc[nH]7)C=CC5=C6)cc4)cc3C2=O)CC1
Result: 2.92

###

target: ADCYAP1R1 (Homo sapiens, UniProt P41586); construct: purchased Promega (in-house HiBiT-GPCR construct library, NanoBRET); test: NanoBRET screen HiBiT-ADCYAP1R1 in HEK293; type: binding; details: ADCYAP1R1; tracer 1μM
Sequence (P41586 21-468): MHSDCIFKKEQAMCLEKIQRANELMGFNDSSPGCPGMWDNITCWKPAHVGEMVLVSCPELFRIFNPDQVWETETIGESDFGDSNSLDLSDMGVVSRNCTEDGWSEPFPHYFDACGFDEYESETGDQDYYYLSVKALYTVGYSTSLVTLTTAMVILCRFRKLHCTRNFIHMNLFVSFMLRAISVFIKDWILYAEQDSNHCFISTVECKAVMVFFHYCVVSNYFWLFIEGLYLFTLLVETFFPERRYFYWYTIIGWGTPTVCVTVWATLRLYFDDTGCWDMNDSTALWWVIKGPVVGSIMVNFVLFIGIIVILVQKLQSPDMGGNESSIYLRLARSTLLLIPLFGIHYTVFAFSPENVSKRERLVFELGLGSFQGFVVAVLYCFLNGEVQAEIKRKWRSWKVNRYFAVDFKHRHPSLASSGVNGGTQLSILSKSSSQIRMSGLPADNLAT
Each item that follows carries a reported NanoBRET Fold Response.
Could you keep your reply to the number by itself?

Some molecules with recorded NanoBRET Fold Response:
COc1ccccc1N1CCN(CCCCN2C(=O)c3ccc(CNC(=O)CCOCCNC(=O)c4ccc(CNC(=O)CCc5ccc6n5[B-](F)(F)[N+]5=C(c7ccc[nH]7)C=CC5=C6)cc4)cc3C2=O)CC1 = 1.00
O=C(CCc1ccc2n1[B-](F)(F)[N+]1=C(c3ccc[nH]3)C=CC1=C2)NCCOCCOCCNC(=O)OCCOCCN1CCN(C2=Nc3ccccc3Sc3ccccc32)CC1 = 1.11
O=C(CCc1ccc2n1[B-](F)(F)[N+]1=C(c3ccc[nH]3)C=CC1=C2)NCc1ccc(C(=O)NCCOCCC(=O)N[C@@H]2CC[C@@]3(O)[C@H]4Cc5ccc(O)c6c5[C@@]3(CCN4CC3CC3)[C@H]2O6)cc1 [Naltrexone-3-NB590] = 0.98
CCCn1c(=O)c2[nH]c(-c3ccc(OCC(=O)NCCNC(=O)CCOCCNC(=O)c4ccc(CNC(=O)CCc5ccc6n5[B-](F)(F)[N+]5=C(c7ccc[nH]7)C=CC5=C6)cc4)cc3)nc2n(CCC)c1=O = 0.97
Cc1cc2c(s1)Nc1ccccc1N=C2N1CCN(CCCNC(=O)CCOCCOCCOCCOCCNC(=O)CCc2ccc3n2[B-](F)(F)[N+]2=C(c4ccc[nH]4)C=CC2=C3)CC1 = 1.01

Query: Tell me its NanoBRET Fold Response given CC(C)N(CC[C@H](c1ccccc1)c1cc(CCNC(=O)CCOCCOCCOCCOCCNC(=O)CCc2ccc3n2[B-](F)(F)[N+]2=C(c4ccc[nH]4)C=CC2=C3)ccc1O)C(C)C as the entry.
Result: 0.93

Query: State its NanoBRET Fold Response for this molecule: CC(C)N(CC[C@H](c1ccccc1)c1cc(CCNC(=O)c2ccc(CNC(=O)CCc3ccc4n3[B-](F)(F)[N+]3=C(c5ccc[nH]5)C=CC3=C4)cc2)ccc1O)C(C)C
Result: 1.00

Query: // fetch NanoBRET Fold Response given entry Cc1nc2n(c(=O)c1CCN1CCC(c3noc4cc(F)ccc34)CC1)CCCC2OC(=O)NCCOCCOCCOCCOCCNC(=O)CCc1ccc2n1[B-](F)(F)[N+]1=C(c3ccc[nH]3)C=CC1=C2 (stereo not drawn)
Result: 1.02

Query: Report NanoBRET Fold Response, nothing else, for this molecule: N#CN=C(NCCCOc1cccc(CN2CCCCC2)c1)NCCNC(=O)CCOCCOCCOCCOCCNC(=O)CCc1ccc2n1[B-](F)(F)[N+]1=C(c3ccc[nH]3)C=CC1=C2
Result: 1.01

Query: Give the value of NanoBRET Fold Response reported for the following: O=C(CCOCCOCCOCCOCCNC(=O)CCc1ccc2n1[B-](F)(F)[N+]1=C(c3ccc[nH]3)C=CC1=C2)NCCCN1CCN(C2=Nc3ccccc3Oc3ccc(Cl)cc32)CC1
Result: 1.20

Query: Give the reported value of NanoBRET Fold Response for this record: CN(C)CCC=C1c2ccccc2CCc2ccc(C(=O)NCCNC(=O)CCOCCOCCOCCOCCNC(=O)CCc3ccc4n3[B-](F)(F)[N+]3=C(c5ccc[nH]5)C=CC3=C4)cc21
Result: 0.99

Query: Identify NanoBRET Fold Response associated with the molecule COc1ccccc1N1CCN(CCCCN2C(=O)c3ccc(CNC(=O)CCOCCOCCOCCOCCNC(=O)CCc4ccc5n4[B-](F)(F)[N+]4=C(c6ccc[nH]6)C=CC4=C5)cc3C2=O)CC1
Result: 1.04

###

Form field: NanoBRET Fold Response (one value per entry).
target: C5AR2 (Homo sapiens); construct: purchased Promega (in-house HiBiT-GPCR construct library, NanoBRET); test: NanoBRET screen HiBiT-C5AR2 in HEK293; assay type: binding; conditions: C5AR2; tracer 0.1μM
Sequence (Q9P296 whole entry): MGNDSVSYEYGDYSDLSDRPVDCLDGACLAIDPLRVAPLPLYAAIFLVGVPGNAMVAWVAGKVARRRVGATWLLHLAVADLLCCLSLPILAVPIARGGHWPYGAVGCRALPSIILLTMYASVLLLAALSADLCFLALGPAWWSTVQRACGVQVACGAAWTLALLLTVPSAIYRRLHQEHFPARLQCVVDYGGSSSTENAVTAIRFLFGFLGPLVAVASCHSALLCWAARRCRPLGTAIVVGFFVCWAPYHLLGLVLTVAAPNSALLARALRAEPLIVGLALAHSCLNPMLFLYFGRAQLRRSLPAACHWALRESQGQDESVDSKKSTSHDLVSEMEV

Here are 3 compounds together with their reported answers.
COc1ccccc1N1CCN(CCCCN2C(=O)c3ccc(CNC(=O)CCOCCNC(=O)c4ccc(CNC(=O)CCc5ccc6n5[B-](F)(F)[N+]5=C(c7ccc[nH]7)C=CC5=C6)cc4)cc3C2=O)CC1 [NAN-190-3-NB590] = 0.87
O=C(CCOCCOCCOCCOCCNC(=O)CCc1ccc2n1[B-](F)(F)[N+]1=C(c3ccc[nH]3)C=CC1=C2)NCCCN1CCN(C2=Nc3ccccc3Oc3ccc(Cl)cc32)CC1 [Loxapine-a-2-NB590] = 0.95
CCCn1c(=O)c2[nH]c(-c3ccc(OCC(=O)NCCNC(=O)CCOCCNC(=O)c4ccc(CNC(=O)CCc5ccc6n5[B-](F)(F)[N+]5=C(c7ccc[nH]7)C=CC5=C6)cc4)cc3)nc2n(CCC)c1=O [XAC-3-NB590] = 1.02

Query: Annotate the compound CC(C)N(CC[C@H](c1ccccc1)c1cc(CCNC(=O)c2ccc(CNC(=O)CCc3ccc4n3[B-](F)(F)[N+]3=C(c5ccc[nH]5)C=CC3=C4)cc2)ccc1O)C(C)C [Tolterodine-BZ-NB590] with its measured NanoBRET Fold Response.
Result: 1.05

Query: Given the compound Cc1cc2c(s1)Nc1ccccc1N=C2N1CCN(CCCNC(=O)CCOCCOCCOCCOCCNC(=O)CCc2ccc3n2[B-](F)(F)[N+]2=C(c4ccc[nH]4)C=CC2=C3)CC1 [Olanzapine-a-2-NB590] , write its reported NanoBRET Fold Response.
Result: 0.95

Query: Find the measured NanoBRET Fold Response of O=C(CCc1ccc2n1[B-](F)(F)[N+]1=C(c3ccc[nH]3)C=CC1=C2)NCCOCCOCCNC(=O)OCCOCCN1CCN(C2=Nc3ccccc3Sc3ccccc32)CC1 [Quetiapine-a-2-NB590] and report it.
Result: 1.04

Query: Specify reported NanoBRET Fold Response for the compound shown: O=C(CCc1ccc2n1[B-](F)(F)[N+]1=C(c3ccc[nH]3)C=CC1=C2)NCc1ccc(C(=O)NCCOCCC(=O)N[C@@H]2CC[C@@]3(O)[C@H]4Cc5ccc(O)c6c5[C@@]3(CCN4CC3CC3)[C@H]2O6)cc1 [Naltrexone-3-NB590]
Result: 0.95

Query: Look up NanoBRET Fold Response of COc1ccccc1N1CCN(CCCCN2C(=O)c3ccc(CNC(=O)CCOCCOCCOCCOCCNC(=O)CCc4ccc5n4[B-](F)(F)[N+]4=C(c6ccc[nH]6)C=CC4=C5)cc3C2=O)CC1 [NAN-190-2-NB590] and report it.
Result: 1.02

Query: Specify reported NanoBRET Fold Response for the compound shown: N#CN=C(NCCCOc1cccc(CN2CCCCC2)c1)NCCNC(=O)CCOCCOCCOCCOCCNC(=O)CCc1ccc2n1[B-](F)(F)[N+]1=C(c3ccc[nH]3)C=CC1=C2 [Aminopotentidine-2-NB590]
Result: 1.06

Query: Look up and report measured NanoBRET Fold Response for this entry: Cc1nc2n(c(=O)c1CCN1CCC(c3noc4cc(F)ccc34)CC1)CCCC2OC(=O)NCCOCCOCCOCCOCCNC(=O)CCc1ccc2n1[B-](F)(F)[N+]1=C(c3ccc[nH]3)C=CC1=C2 (centres unmarked) [Risperidone-2-NB590]
Result: 1.06

Query: Supply measured NanoBRET Fold Response of CC(C)N(CC[C@H](c1ccccc1)c1cc(CCNC(=O)CCOCCOCCOCCOCCNC(=O)CCc2ccc3n2[B-](F)(F)[N+]2=C(c4ccc[nH]4)C=CC2=C3)ccc1O)C(C)C [Tolterodine-2-NB590] in your reply.
Result: 0.98
